Reference for the values: patent US20250163164A1

system: T1, human interleukin 13 receptor subunit alpha 2 (IL-13RA2) (human, UniProt Q14627 27-380)
T1 sequence (looked up): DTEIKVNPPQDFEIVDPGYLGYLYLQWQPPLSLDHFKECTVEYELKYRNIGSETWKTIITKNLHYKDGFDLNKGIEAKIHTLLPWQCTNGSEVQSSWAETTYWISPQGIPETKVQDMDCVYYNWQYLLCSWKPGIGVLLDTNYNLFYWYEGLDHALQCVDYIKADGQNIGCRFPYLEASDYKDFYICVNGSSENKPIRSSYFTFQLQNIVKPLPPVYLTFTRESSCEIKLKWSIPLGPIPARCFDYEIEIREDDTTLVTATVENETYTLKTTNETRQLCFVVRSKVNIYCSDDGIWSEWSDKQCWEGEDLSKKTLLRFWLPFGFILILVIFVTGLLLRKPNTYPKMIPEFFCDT
assay.protocol: cell-based or functional assay
Here the recorded internalization EC50 (pHAb dye), A375 cells is given for each entry.
# unit: nM | format: bare number

INSERT INTO measurements (binder, readout_unit, experimental_value) VALUES
  ('xi54A4F7 hIgG1 (antibody, V domains shown) VH: EVKLVESGGGLVKPGGSLKLSCAASGFTFSSYGMSWVRQTPEKRLEWVATISGGGSYTYYPDSVKGRFTISRDNAKNNLYLQMSSLRSEDTALYYCARRDLRSAMDHWGQGTSVTVSS VL: DIVMTQSQKFMSTSVGDRVSVTCRASQNVDINVAWYQQKPGQSPKSLIYSASYRYSGVPDRFTGSGSGTDFTLTISNVQSEDLAEYFCQQYNSYPLTFGGGTKLEIR', 'nM', 0.66);

Now for a further binder.
Q. internalization EC50 (pHAb dye), A375 cells lookup needed for xi73A11E2 hIgG1 (antibody, V domains shown) VH: EVKLVESGGGLVKPGGSLKLSCAASGFTFSSYGMSWVRQTPEKRLEWVATISGGGSYTYYPDSVKGRFTISRDNARNNLYLQMNSLRSEDTALYYCARRDLRSAMDYWGQGTSVTVSS VL: DIVMTQSQKFMSTSVGDRVSVTCKASQNVDINVAWYQQKPGQSPKALIYSASYRYSGVPDRFTGSGSGTDFTLTISNVQSEDLAEFFCQQYNSYPLTFGGGTKLEIK , thanks.
A. 0.77
